Target: HLA-A*24 (human)
Assay: UV-exchange b2m ELISA
Quantity kind: peptide exchange yield

Here is how some binders turned out for peptide exchange yield.
- Binder: "TYTTVPRVAF"
  Quantity kind: "peptide exchange yield"
  Meas value: "> 75%"
- Binder: "RYPDNLKHL"
  Quantity kind: "peptide exchange yield"
  Meas value: "20 to 49%"
- Binder: "VYVSDIQEL"
  Quantity kind: "peptide exchange yield"
  Meas value: "50 to 75%"
- Binder: "AYVVFVSTL"
  Quantity kind: "peptide exchange yield"
  Meas value: "20 to 49%"
- Binder: "VFKASKITF"
  Quantity kind: "peptide exchange yield"
  Meas value: "50 to 75%"
- Binder: "TYTQDFNKF"
  Quantity kind: "peptide exchange yield"
  Meas value: "50 to 75%"
- Binder: "KYIPYKYVI"
  Quantity kind: "peptide exchange yield"
  Meas value: "50 to 75%"

Look up peptide exchange yield: DYTTWTALL
> 75%
